Tested on: Friend Leukemia Virus (FLV)
Assay: Anti-Friend Leukemia Virus plaque inhibition in FG-10 cells
Type: cell-based
Conditions: FG-10 cells infected with FLV; compound added one hour after infecting; 3 + 3 days incubation; read-out: IC50 (concentration giving 50% inhibition of plaques)
VALUE TYPE: IC50 (nM)
Give your result in nM as a bare value.

Entry Cc1cn([C@H]2C[C@H](N=[N+]=[N-])[C@@H](CO)O2)c(=O)[nH]c1=O [Zidovudine, 3′-azido-3′-deoxythymidine] : reported IC50 = ?
5
